Source of measurements: PubChem BioAssay AID651558

experiment_notes: qHTS Assay to Find Inhibitors of Chronic Active B-Cell Receptor Signaling: Hit Validation in Primary Screen; also: nearly all actives have a fitted effect of over 75% in size; also: potency is read from the fitted curve at half-maximal effect
study_conditions: ABC-DLBCL IkB-luc/CBR ratio luminescence, 4 h; series mostly up to 46.1 µM
Among all 1,200 compounds or so, about 480 (40%) were called active. Not shown: some 29% with an inconclusive outcome. Some of the results follow.
measurement_kind: Potency

Record excerpt, results attached:
Q. Endpoint output: Potency of COc1ccc(N/C=C/C(=O)c2cc(OC)c(OC)c(OC)c2)cc1 . Value?
A. 7.31 µM (active)

Q. Endpoint output: Potency of COc1cccc(/C=N/NC(=O)c2[nH]nc3c2CCc2ccccc2-3)c1O . Value?
A. 20.6 µM (active)

Q. Endpoint output: Potency of C/C(Cl)=C\Cn1c(O)c(N=NC(N)=S)c2cc(Br)ccc21 . Value?
A. 14.6 µM (active)

Q. Endpoint output: Potency of COc1cc(C(=O)NNC(=S)Nc2ccc(S(N)(=O)=O)cc2)cc(OC)c1OC . Value?
A. inactive

Q. Endpoint output: Potency of Cc1ccc(C(=O)Oc2ccc(Cl)c3cccnc23)cc1[N+](=O)[O-] . Value?
A. inactive

Can you give me Potency for all of these, one by one?
1. CCOc1ccc(Nc2cc(C)nc(-n3nc(C)cc3C)n2)cc1
2. COc1ccc(CC2(CO)CCN(Cc3cccc4nccnc34)CC2)cc1
3. CC(=O)[C@H]1CC[C@H]2[C@@H]3CCC4=CC(=O)CC[C@]4(C)[C@H]3CC[C@]12C
4. COc1cc2c(c(OC)c1OC)-c1ccc(OC)c(=O)cc1[C@@H](N(C)CC#CCO)CC2
5. NC(=S)N=Nc1c(O)n(CCCl)c2ccccc12

A.
["3.26 µM (active)", "inactive", "inactive", "0.259 µM (active)", "inactive"]
